Provide the reported number in parentheses after KD (fold against SYNAGIS = 1) of each item.
biological target: Bac-F; assay: BIAcore, mAb vs Bac-F (1:1)
Please state the figure in fold; there is no need to write the unit.

Could you tell me which number in parentheses after KD (fold against SYNAGIS = 1) is on file for A1e9 (monoclonal antibody) (antibody, V domains shown) VH: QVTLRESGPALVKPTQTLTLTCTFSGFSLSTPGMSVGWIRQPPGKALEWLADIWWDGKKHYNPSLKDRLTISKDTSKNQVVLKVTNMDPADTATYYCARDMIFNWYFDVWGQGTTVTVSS VL: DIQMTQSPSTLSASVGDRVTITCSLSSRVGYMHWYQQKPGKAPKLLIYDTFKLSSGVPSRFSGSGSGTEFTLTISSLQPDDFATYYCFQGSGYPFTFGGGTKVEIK ?
12

Param item = A17d4 (monoclonal antibody) (antibody, V domains shown) VH: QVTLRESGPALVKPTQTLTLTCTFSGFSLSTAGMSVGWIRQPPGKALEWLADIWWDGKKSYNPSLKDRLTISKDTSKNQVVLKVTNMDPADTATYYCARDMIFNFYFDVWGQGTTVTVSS VL: DIQMTQSPSTLSASVGDRVTITCLPSSRVGYMHWYQQKPGKAPKLLIYDTMYQASGVPSRFSGSGSGTEFTLTISSLQPDDFATYYCFQFSGYPFTFGGGTKLEIK ; retrieve measured number in parentheses after KD (fold against SYNAGIS = 1).
43

Sample A13c4 (monoclonal antibody) (antibody, V domains shown) VH: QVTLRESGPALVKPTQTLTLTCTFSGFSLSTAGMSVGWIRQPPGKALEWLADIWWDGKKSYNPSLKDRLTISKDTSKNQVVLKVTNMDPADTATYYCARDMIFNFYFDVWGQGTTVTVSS VL: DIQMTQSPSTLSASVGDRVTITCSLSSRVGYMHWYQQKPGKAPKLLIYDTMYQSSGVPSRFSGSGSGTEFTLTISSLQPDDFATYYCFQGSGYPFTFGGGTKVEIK — what was its number in parentheses after KD (fold against SYNAGIS = 1)?
30

Return reported number in parentheses after KD (fold against SYNAGIS = 1); argument: P12f2 (monoclonal antibody) (antibody, V domains shown) VH: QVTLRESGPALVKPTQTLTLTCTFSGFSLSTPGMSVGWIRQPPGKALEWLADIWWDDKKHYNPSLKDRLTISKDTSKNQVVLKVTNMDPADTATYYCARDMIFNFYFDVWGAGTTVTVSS VL: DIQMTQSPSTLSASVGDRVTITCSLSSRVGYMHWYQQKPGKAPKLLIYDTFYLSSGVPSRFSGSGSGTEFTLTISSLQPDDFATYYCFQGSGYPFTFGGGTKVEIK
13

Sample P11d4 (monoclonal antibody) (antibody, V domains shown) VH: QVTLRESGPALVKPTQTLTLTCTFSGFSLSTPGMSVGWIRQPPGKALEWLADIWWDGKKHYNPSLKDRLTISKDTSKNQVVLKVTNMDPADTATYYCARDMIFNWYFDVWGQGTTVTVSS VL: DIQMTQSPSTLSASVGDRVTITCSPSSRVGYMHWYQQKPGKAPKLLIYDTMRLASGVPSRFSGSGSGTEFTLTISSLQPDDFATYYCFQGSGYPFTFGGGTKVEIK — what was its number in parentheses after KD (fold against SYNAGIS = 1)?
6

Reference for the values: patent US20030091584A1
